test: Stability assay in 25% TIDE 2X detergent with DTPA (residual Abz-AGLA-Nba protease activity); format: physicochemical; conditions: 60 min at 32°C; variant residual AGLA activity divided by wild-type residual activity
observationType: PI (relative stability), 25% TIDE 2X with DTPA
Output spec: single numeric token, no unit.

Task: Give its PI (relative stability), 25% TIDE 2X with DTPA value. Item: S065V: single-substitution thermolysin variant (SEQ ID NO:3 numbering) (protein, listed as Geobacillus caldoproteolyticus) ITGTSTVGVGRGVLGDQKNINTTYSTYYYLQDNTRGNGIFTYDAKYRTTLPGSLWADADNQFFAVYDAPAVDAHYYAGVTYDYYKNVHNRLSYDGNNAAIRSSVHYSQGYNNAFWNGSQMVYGDGDGQTFIPLSGGIDVVAHELTHAVTDYTAGLIYQNESGAINEAISDIFGTLVEFYANKNPDWEIGEDVYTPGISGDSLRSMSDPAKYGDPDHYSKRYTGTQDNGGVHINSGIINKAAYLISQGGTHYGVSVVGIGRDKLGKIFYRALTQYLTPTSNFSQLRAAAVQSATDLYGSTSQEVASVKQAFDAVGVK
Result: 1.08
